All figures here come from ChEMBL document CHEMBL4513216.

test system: Plasmodium berghei; assay: Screen against P. berghei liver stage (PbLuc), transformed with Luciferase, at 10uM; format: functional, HepG2; settings: tested at 10 uM
The campaign covered roughly 69,000 compounds. About 8,600 (12%) showed an effect of 50% or more. The full list was thinned out, with strong results kept by preference.
Answer each item with its documented INHIBITION.
# unit: % | format: bare number

Req: I am curious: what INHIBITION value has been reported for O=c1cc(CN2C[C@@H]3CC[C@H]2CN(Cc2ccccc2)C3)[nH]c(=O)[nH]1 ?
Resp: 34

Req: Quick one: INHIBITION for CC(C)c1ncc2c(n1)CN(Cc1nc(-c3ccccn3)no1)CC2 ?
Resp: 28.8

Req: Quick one: INHIBITION for COCC(=O)N1CCN(C(=O)C2(c3ccc(C)c(OC)c3)CC2)CC1 ?
Resp: 50.9

Req: If you can, please state the reported INHIBITION value of COc1cc(C2(C(=O)NC3CCN(CC4CC4)CC3)CC2)ccc1C .
Resp: 25.5

Req: # input molecule: COCCNC(=O)C1(c2ccc(C)c(OC)c2)CCCC1 ; wanted: its INHIBITION
Resp: 21.5

Req: # INHIBITION lookup, item COc1cc(C2(C(=O)NC3CCN(C4CC4)CC3)CC2)ccc1C
Resp: 51.5

Req: Can you look up the measured INHIBITION of COc1cc(-c2nc3c([nH]2)CCCNC3=O)cc(OC)c1OC for me?
Resp: -34.8

Req: Entry under review: COc1cc(C2(C(=O)N3CCN(CC(C)(C)O)CC3)CC2)ccc1C . Reported INHIBITION?
Resp: 52.3

Req: Form field: reported INHIBITION of COc1cc(C2(C(=O)N3CCN(CC(C)O)CC3)CC2)ccc1C (stereo unspecified)
Resp: -17.8

Req: Suppose we examine the molecule CCC(C)N(Cc1sccc1C)C(=O)c1cc(N)ccn1 (stereo unspecified) ; what INHIBITION value has been reported?
Resp: 43.9

Req: Please report the recorded INHIBITION for COc1cc(C2(C(=O)N3CCCC(n4cncn4)C3)CC2)ccc1C (stereo unspecified) .
Resp: -7.81

---

system: Plasmodium berghei; experiment: Screen against P. berghei liver stage (PbLuc), transformed with Luciferase, at 10uM; type: functional, HepG2; conditions: tested at 10 uM
Hit rate of the full screen: of about 69,000 compounds, about 8,600 (12%) showed an effect of 50% or more. This is one part of a sample in which strong results are shown more often than they occur.
measure_name: INHIBITION (%)
API: value field is a number in %; no unit string.

Req: // lookup INHIBITION for CN(Cc1cccc2ncccc12)C(=O)CCC(F)(F)F
Resp: 19.7

Req: Would you kindly share the measured INHIBITION for CN(C(=O)CCC(F)(F)F)c1cccc2ncccc12 ?
Resp: 71.4

Req: Need INHIBITION of Cc1cccc(=O)n1CCC(=O)N(C)Cc1cccc2ncccc12 , thanks.
Resp: 33.1

Req: Quick one: INHIBITION for CNC(=O)N1CCC2(CC1)CC[C@@]1(C(=O)NC)CN(S(C)(=O)=O)C[C@@H]21 ?
Resp: 12.5

Req: Query (compound): CCCNC(=O)c1cccc2ncccc12 ; field requested: INHIBITION
Resp: 26.7

Req: Record request: INHIBITION value, item Cc1nc(CNC(=O)c2cc(COc3cccc(F)c3)[nH]n2)n[nH]1
Resp: 10.1

---

tested on: Plasmodium berghei; assay: Screen against P. berghei liver stage (PbLuc), transformed with Luciferase, at 10uM; assay type: functional, HepG2; details: tested at 10 uM
The whole screen tested about 69,000 compounds, of which about 8,600 (12%) showed an effect of 50% or more. What follows is part of a selection rich in strong results, with near analogues and random picks from the rest.
measure_name: INHIBITION (%)
Report the figure in % without appending any unit label.

Req: Item under review: CN(Cc1cccnc1)C[C@@H]1OC[C@H]2CN(C(=O)C3CC3)CC[C@H]21 . Reported INHIBITION?
Resp: 76.2

Req: I'd like to know its INHIBITION. The compound in question is O=C(NC(C(=O)Nc1cc[nH]n1)c1ccccc1)C1CCC1 (stereo not drawn)
Resp: 50.7

Req: # INHIBITION lookup, item O=C(c1cccc(F)c1)N1CCOC(c2nc(-c3ncccn3)no2)C1 (stereo not drawn)
Resp: 13.1

Req: # get_value(readout='INHIBITION', item= NC(=O)C(NC(=O)COC1CCCC1)c1ccccc1 (stereo not drawn) )
Resp: 45.3

Req: What value of measured INHIBITION is listed for CN1CCCC[C@@H]2[C@H]1[C@@H](c1ccccc1)CCN2C(=O)c1ccccc1 ?
Resp: 59.7

Req: Suppose we examine the compound CS(=O)(=O)NCCCN1CCCC1c1cccc(Br)c1 (stereo not drawn) ; what INHIBITION value has been reported?
Resp: -5.25

Req: Endpoint output: INHIBITION of COC1CCN(C(=O)Cc2csc(-c3ccc(F)cc3)n2)CC1 . Value?
Resp: -7.35

Req: // returns reported INHIBITION for input Cn1cc(C2CCCN2C(=O)COCCc2ccccc2)cn1 (stereo not drawn)
Resp: -32

Req: I have this compound here, CN(C)C[C@H]1OC[C@@H]2CN(C(=O)NCc3cccnc3)CC[C@@H]21 , and I need its recorded INHIBITION.
Resp: 5.63

Req: Given the compound NC(=O)C(NC(=O)COC1CCCCC1)c1ccccc1 (stereo not drawn) , what is its reported INHIBITION?
Resp: 22.5

Req: GET /values?readout=INHIBITION&item= CCc1ncc2c(n1)CN(c1cc(N3CCN(C)CC3)nc(N)n1)C2
Resp: 19.7

Req: Tell me the measured INHIBITION of Cc1ccc(Cc2cnc(C3CCNCC3)cn2)cc1 , please.
Resp: 13.5

Req: Suppose we examine the compound Cc1nnsc1C(=O)N1CCN(C(=O)C2CCC2)[C@@H]2CS(=O)(=O)C[C@@H]21 ; what INHIBITION value has been reported?
Resp: 47.2

Req: Quick one: INHIBITION for Cc1oncc1C(=O)N[C@@H]1CN(Cc2ccoc2)C[C@@H]2CCCO[C@@H]21 ?
Resp: 43

Req: // query INHIBITION value for entry CN(Cc1cccnc1)C[C@@H]1OC[C@H]2CN(Cc3ccoc3)CC[C@H]21
Resp: 2.79

Req: Item under review: CNc1cnc(CC2COCCN(Cc3ccccc3)C2)cn1 (stereo not drawn) . Reported INHIBITION?
Resp: 9.05

Req: // query INHIBITION value for entry CC(NC(=O)C1CCCC1)c1nc(-c2ccccc2)c[nH]1 (stereo not drawn)
Resp: 31.7

Req: Return reported INHIBITION; argument: O=C([C@@H]1CCO[C@@H]2CCN(Cc3ccsc3)C[C@@H]21)N1CCCC1
Resp: 38.1

Req: Query: INHIBITION; subject: CN1CCCC[C@@H]2[C@H]1[C@@H](c1ccccc1)CCN2C(=O)c1cccnc1
Resp: 47.2

Req: Endpoint output: INHIBITION of CCNc1ccnc(NCC2(N(C)C)CCOCC2)n1 . Value?
Resp: 39

Req: Need INHIBITION of Cc1ccc(N2CCCc3sc(C(=O)NCCC#N)nc32)nn1 , thanks.
Resp: 35.8

Req: Sample CN(C)CCOCc1ncn2c1CN(c1ncc(F)cn1)CCC2 — what was its INHIBITION?
Resp: 23.3

Req: What does the record list as INHIBITION for CN(C)c1cc(CNC(=O)CC2CCCCC2)ccn1 ?
Resp: 4.34

---

test system: Plasmodium berghei; experiment: Screen against P. berghei liver stage (PbLuc), transformed with Luciferase, at 10uM; assay type: functional, HepG2; conditions: tested at 10 uM
About 8,600 (12%) of roughly 69,000 compounds showed an effect of 50% or more. Only a selection was taken, and strong results are over-represented in it overall.
Label n if INHIBITION falls below 20%; label y in every other case.

Req: hey, is INHIBITION for this one >= 20%? CC(C)C[C@@H](N)C(=O)N(C)Cc1csc(C(C)C)n1
Resp: n

Req: Hi team, for CCNc1ccnc(NC2CCN(CC(N)=O)CC2)n1 , is the recorded INHIBITION at or above 20%?
Resp: n

Req: Test whether the compound COc1cc(OC)cc(C2(O)CCN(Cc3nc(C)c(C)o3)CC2)c1 records INHIBITION of 20% or higher.
Resp: y

Req: Could you tell me if the measured INHIBITION of CCc1cnc(CN2CCC(O)(c3cc(OC)cc(OC)c3)CC2)o1 reaches 20% or more?
Resp: n

Req: Entry O=C(C1CCCO1)N1CCCn2c(nnc2Cn2ccnc2)C1 (stereo unspecified) : is its INHIBITION no less than 20%?
Resp: n

Req: Is the recorded value of INHIBITION equal to or greater than 20% for this compound? COc1ccc2c(c1)CN(C)C(=O)CCN2CC(O)C(C)(C)C (stereo unspecified)
Resp: n

Req: Can CN(C)C(CNC(=O)c1[nH]nc(C2CC2)c1Br)C1CC1 (stereo unspecified) be said to have INHIBITION at or above 20%?
Resp: n

Req: Exam item: decide whether the reported INHIBITION for COc1ccc(S(=O)(=O)N[C@H]2CN(C(C)=O)C[C@@H]2C(C)C)cc1F is at least 20%.
Resp: n

Req: INHIBITION >= 20% for CCNc1ccnc(NC2CCN(S(C)(=O)=O)CC2)n1 ?
Resp: y

Req: Could you tell me if the measured INHIBITION of Cn1nc2c(cc1=O)CN(Cc1nc(-c3ccccn3)no1)CC2 reaches 20% or more?
Resp: n
